assayedSystem: JAK3 kinase domain (Homo sapiens (Human))
procedureDetails: JAK3 inhibition assay (Caliper LabChip, isolated kinase domain)
settings: 5 uM ATP, 5 nM JAK3; read-out: JAK3 enzymatic activity (Ki)
pKi: −log10 of the molar value.
readout: pKi

Solved cases (3 shown):
{"structureAsSmiles": "Cc1cc(NC(=O)c2cnn3cccnc23)n(-c2cc(Cl)ccc2C)n1", "pKi": 6.82}
{"structureAsSmiles": "COc1ccc(F)cc1-c1nn(CC2(O)CCOCC2)cc1NC(=O)c1cnn2cccnc12", "pKi": 6.15}
{"structureAsSmiles": "O=C(Nc1ccnn1-c1ccccc1Cl)c1cnn2cccnc12", "pKi": 6.82}

a: Cc1cc(NC(=O)c2cnn3cccnc23)n(-c2cc(C#N)ccc2Cl)n1
b: COc1ncc(C#N)cc1-c1n[nH]cc1NC(=O)c1cnn2cccnc12
Exercise: Of a and b , which carries the smaller reported pKi figure? Kindly give the label for the entry you pick.
Key: a

----------
assayedSystem: JAK1 kinase domain (Homo sapiens (Human))
Sequence (P23458 852-1154): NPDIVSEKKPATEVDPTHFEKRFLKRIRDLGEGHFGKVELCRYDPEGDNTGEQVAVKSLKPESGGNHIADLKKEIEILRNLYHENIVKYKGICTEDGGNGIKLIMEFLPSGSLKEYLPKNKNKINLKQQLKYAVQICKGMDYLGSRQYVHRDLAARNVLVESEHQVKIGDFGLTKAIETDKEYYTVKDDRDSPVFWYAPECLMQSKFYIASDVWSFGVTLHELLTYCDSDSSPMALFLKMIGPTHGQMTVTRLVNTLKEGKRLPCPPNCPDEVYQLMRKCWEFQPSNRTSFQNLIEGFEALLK
procedureDetails: JAK1 inhibition assay (Caliper LabChip, isolated kinase domain)
settings: 25 uM ATP, 1.5 nM JAK1; read-out: JAK1 enzymatic activity (Ki)
readout: Ki (nM)

Consider the worked cases shown below.
{"molecule": "O=C(Nc1ccncc1-c1cccc(F)c1)c1cnn2cccnc12 [Example 63]", "reportedValue": 153}
{"molecule": "O=C(Nc1ccnn1-c1ccc(Cl)cc1)c1cnn2cccnc12 [Example 54]", "reportedValue": 1200}
{"molecule": "CCOc1ccc(Cl)cc1-c1nn([C@H]2CCCC[C@@H]2O)cc1NC(=O)c1cnn2cccnc12 (stereo in doubt) [Example 414]", "reportedValue": 3.8}
{"molecule": "COc1ccc(Cl)cc1-c1nn(CC(O)(C(F)(F)F)C(F)(F)F)cc1NC(=O)c1cnn2cccnc12 [Example 432]", "reportedValue": 1.5}
{"molecule": "Cc1cc(NC(=O)c2cnn3cccnc23)n(-c2cc(C#N)ccc2Cl)n1 [Example 38]", "reportedValue": 40.3}

a: COc1cnc(C(F)(F)F)cc1-c1nn(CC(C)(C)O)cc1NC(=O)c1cnn2cccnc12 [Example 143]
b: COc1ncc(Cl)cc1-c1nn(CC(=O)N(C)C)cc1NC(=O)c1cnn2cccnc12 [Example 499]
c: O=C(Nc1ccnn1-c1ccccc1Cl)c1cnn2cccnc12 [Example 51]
Exercise: Would you mind ranking these molecules by ascending Ki? # list labels per requested ordering
Key: b, a, c
(b: 1.6 nM, a: 12 nM, c: 83.7 nM)

----------
assayedSystem: JAK3 kinase domain (Homo sapiens (Human), UniProt P52333)
Sequence (P52333 783-1124): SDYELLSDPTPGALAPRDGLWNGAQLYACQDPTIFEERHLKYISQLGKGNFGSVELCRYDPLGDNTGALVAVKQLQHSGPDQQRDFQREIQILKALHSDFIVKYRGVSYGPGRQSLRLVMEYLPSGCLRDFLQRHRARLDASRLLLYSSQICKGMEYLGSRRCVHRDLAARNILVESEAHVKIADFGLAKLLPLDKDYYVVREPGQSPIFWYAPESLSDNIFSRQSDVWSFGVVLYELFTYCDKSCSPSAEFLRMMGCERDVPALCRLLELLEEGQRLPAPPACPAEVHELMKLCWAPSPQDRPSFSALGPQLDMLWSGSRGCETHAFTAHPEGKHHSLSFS
procedureDetails: JAK3 inhibition assay (Caliper LabChip, isolated kinase domain)
settings: 5 uM ATP, 5 nM JAK3; read-out: JAK3 enzymatic activity (Ki)
readout: Ki (nM)

{"compound": "Cc1cc(NC(=O)c2cnn3cccnc23)n(-c2cc(Cl)ccc2Cl)n1", "assayedSystem": "JAK3 kinase domain (Homo sapiens (Human), UniProt P52333)", "Ki / nM": 73.9}
{"compound": "O=C(Nc1ccncc1-c1cccc(F)c1)c1cnn2cccnc12", "assayedSystem": "JAK3 kinase domain (Homo sapiens (Human), UniProt P52333)", "Ki / nM": 200}
{"compound": "COc1ccc(Cl)cc1-c1nn(CC(O)(C(F)(F)F)C(F)(F)F)cc1NC(=O)c1cnn2cccnc12", "assayedSystem": "JAK3 kinase domain (Homo sapiens (Human), UniProt P52333)", "Ki / nM": 570}
{"compound": "COc1ccc(Cl)cc1-c1nc(C)sc1NC(=O)c1cnn2cccnc12", "assayedSystem": "JAK3 kinase domain (Homo sapiens (Human), UniProt P52333)", "Ki / nM": 13}
{"compound": "Cc1cc(NC(=O)c2cnn3cccnc23)n(-c2ccccc2Br)n1", "assayedSystem": "JAK3 kinase domain (Homo sapiens (Human), UniProt P52333)", "Ki / nM": 140}

1: CCOc1ccc(Cl)cc1-c1nn([C@H]2CCCC[C@@H]2O)cc1NC(=O)c1cnn2cccnc12 (stereo in doubt)
2: O=C(Nc1c[nH]nc1-n1cc(Cl)ccc1=O)c1cnn2cccnc12
Exercise: Which has the higher Ki, 1 or 2 ? Answer format: the label of the selected item.
Key: 2
(2: 4100 nM, 1: 210 nM)

1: COc1ccc(Cl)cc1-c1nn(CC(=O)N2CCCC2C)cc1NC(=O)c1cnn2cccnc12 (centres unmarked)
2: COc1ncc(Cl)cc1-c1nn(CC(=O)N(C)C)cc1NC(=O)c1cnn2cccnc12
Exercise: Sorting ascending by Ki, which comes first: 1 or 2 ? // respond with label for picked entry
Key: 1
(1: 270 nM, 2: 780 nM)

1: N#CC1CCN(c2n[nH]cc2NC(=O)c2cnn3cccnc23)CC1
2: COc1ccc(Cl)cc1-c1nn(CC(=O)N2CC=CCC2)cc1NC(=O)c1cnn2cccnc12
Exercise: Between the two listed entries 1 and 2 , which has its Ki at the higher number? Which one? Tell me its label.
Key: 1

----------
assayedSystem: JAK2 kinase domain (Homo sapiens (Human))
Sequence (O60674 812-1132): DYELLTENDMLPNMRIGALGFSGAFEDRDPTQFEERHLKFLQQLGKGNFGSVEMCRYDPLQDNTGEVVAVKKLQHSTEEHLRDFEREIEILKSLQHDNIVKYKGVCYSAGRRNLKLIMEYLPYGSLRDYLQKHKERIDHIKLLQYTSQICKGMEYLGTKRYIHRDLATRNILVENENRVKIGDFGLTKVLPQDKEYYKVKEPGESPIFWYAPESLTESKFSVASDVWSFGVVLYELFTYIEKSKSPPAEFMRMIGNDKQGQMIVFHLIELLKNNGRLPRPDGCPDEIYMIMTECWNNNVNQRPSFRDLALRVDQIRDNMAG
procedureDetails: JAK2 inhibition assay (Caliper LabChip, isolated kinase domain)
settings: 25 uM ATP, 0.2 nM JAK2; read-out: JAK2 enzymatic activity (Ki)
readout: Ki (nM)

P: O=C(Nc1ccnn1-c1ccc(Cl)cc1)c1cnn2cccnc12 [Example 54]
Q: COc1cnc(C(F)(F)F)cc1-c1nn(CC(C)(C)O)cc1NC(=O)c1cnn2cccnc12 [Example 143]
R: COc1ncc(Cl)cc1-c1nn(CC(=O)N(C)C)cc1NC(=O)c1cnn2cccnc12 [Example 499]
S: COc1ccc(Cl)cc1-c1nn(CC(=O)N2CCCC2C)cc1NC(=O)c1cnn2cccnc12 (centres unmarked) [Example 283]
T: CC1CCCCN1c1nn(CC(C)(C)O)cc1NC(=O)c1cnn2cccnc12 (centres unmarked) [Example 379]
Exercise: List from greatest to least Ki. I'd appreciate it if you listed the labels in the requested order.
Key: P, Q, T, R, S

P: COc1ccc(C#N)cc1-c1nn(Cc2ncnn2C)cc1NC(=O)c1cnn2cccnc12 [Example 155]
Q: COc1ccc(Cl)cc1-c1nc(C)sc1NC(=O)c1cnn2cccnc12 [Example 170]
Exercise: API: POST /compare with P and Q ; response names the item with higher Ki. Refer to your chosen item by its label in the answer.
Key: P

A: O=C(Nc1ccncc1-c1cccc(F)c1)c1cnn2cccnc12 [Example 63]
B: COc1ccc(F)cc1-c1nn(CC2(O)CCOCC2)cc1NC(=O)c1cnn2cccnc12 [Example 364]
Exercise: Short answer wanted: higher Ki, A or B ? Response format: the label of the selected entry.
Key: A
(A: 23 nM, B: 6.2 nM)

----------
assayedSystem: TYK2 kinase domain (Homo sapiens (Human), UniProt P29597)
Sequence (P29597 873-1187): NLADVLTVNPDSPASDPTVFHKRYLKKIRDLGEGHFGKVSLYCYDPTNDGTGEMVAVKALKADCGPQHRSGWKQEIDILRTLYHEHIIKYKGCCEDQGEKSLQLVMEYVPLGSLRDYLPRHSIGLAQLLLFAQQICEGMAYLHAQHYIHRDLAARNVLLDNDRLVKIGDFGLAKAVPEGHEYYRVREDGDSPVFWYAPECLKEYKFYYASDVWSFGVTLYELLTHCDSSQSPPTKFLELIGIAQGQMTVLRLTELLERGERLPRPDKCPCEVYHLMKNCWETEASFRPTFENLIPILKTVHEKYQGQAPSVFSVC
procedureDetails: TYK2 inhibition assay (Caliper LabChip, isolated kinase domain)
settings: 25 uM ATP, 1 nM TYK2; read-out: TYK2 enzymatic activity (Ki)
readout: Ki (nM)

Past entries and their recorded results:
{"compound": "N#CC1CCN(c2n[nH]cc2NC(=O)c2cnn3cccnc23)CC1", "assayedSystem": "TYK2 kinase domain (Homo sapiens (Human), UniProt P29597)", "Ki / nM": 230}
{"compound": "COc1cnc(C(F)(F)F)cc1-c1nn(CC(C)(C)O)cc1NC(=O)c1cnn2cccnc12", "assayedSystem": "TYK2 kinase domain (Homo sapiens (Human), UniProt P29597)", "Ki / nM": 350}
{"compound": "O=C(Nc1ccncc1-c1cccc(F)c1)c1cnn2cccnc12", "assayedSystem": "TYK2 kinase domain (Homo sapiens (Human), UniProt P29597)", "Ki / nM": 140}

a: COc1ccc(Cl)cc1-c1c(NC(=O)c2cnn3cccnc23)cnn1CCO
b: CC1CCCCN1c1nn(CC(C)(C)O)cc1NC(=O)c1cnn2cccnc12 (centres unmarked)
Exercise: Between a and b , which one shows the larger Ki value? Reply with the label of the item you choose.
Key: b
(b: 410 nM, a: 5.6 nM)

----------
assayedSystem: TYK2 kinase domain (Homo sapiens (Human), UniProt P29597)
procedureDetails: TYK2 inhibition assay (Caliper LabChip, isolated kinase domain)
Format: biochemical
settings: 25 uM ATP, 1 nM TYK2; read-out: TYK2 enzymatic activity (Ki)
readout: Ki (nM)

Past entries and their recorded results:
{"structureAsSmiles": "COc1ncc(C#N)cc1-c1n[nH]cc1NC(=O)c1cnn2cccnc12", "assayedSystem": "TYK2 kinase domain (Homo sapiens (Human), UniProt P29597)", "readout": "Ki", "unitLabel": "nM", "reportedValue": 6.6}
{"structureAsSmiles": "COc1ccc(Cl)cc1-c1nc(C)sc1NC(=O)c1cnn2cccnc12", "assayedSystem": "TYK2 kinase domain (Homo sapiens (Human), UniProt P29597)", "readout": "Ki", "unitLabel": "nM", "reportedValue": 2.1}
{"structureAsSmiles": "COc1ccc(F)cc1-c1nn(CC2(O)CCOCC2)cc1NC(=O)c1cnn2cccnc12", "assayedSystem": "TYK2 kinase domain (Homo sapiens (Human), UniProt P29597)", "readout": "Ki", "unitLabel": "nM", "reportedValue": 47}
{"structureAsSmiles": "Cc1cc(NC(=O)c2cnn3cccnc23)n(-c2cc(Cl)ccc2Cl)n1", "assayedSystem": "TYK2 kinase domain (Homo sapiens (Human), UniProt P29597)", "readout": "Ki", "unitLabel": "nM", "reportedValue": 104}
{"structureAsSmiles": "COc1ccc(C#N)cc1-c1nn(CC2(O)CCCC2)cc1NC(=O)c1cnn2cccnc12", "assayedSystem": "TYK2 kinase domain (Homo sapiens (Human), UniProt P29597)", "readout": "Ki", "unitLabel": "nM", "reportedValue": 46}
{"structureAsSmiles": "O=C(Nc1ccnn1-c1ccc(Cl)cc1)c1cnn2cccnc12", "assayedSystem": "TYK2 kinase domain (Homo sapiens (Human), UniProt P29597)", "readout": "Ki", "unitLabel": "nM", "reportedValue": 850}
{"structureAsSmiles": "O=C(Nc1c[nH]nc1-n1cc(Cl)ccc1=O)c1cnn2cccnc12", "assayedSystem": "TYK2 kinase domain (Homo sapiens (Human), UniProt P29597)", "readout": "Ki", "unitLabel": "nM", "reportedValue": 980}

a: COc1ccc(C#N)cc1-c1nn(Cc2ncnn2C)cc1NC(=O)c1cnn2cccnc12
b: COc1ccc(Cl)cc1-c1nn(CC(O)(C(F)(F)F)C(F)(F)F)cc1NC(=O)c1cnn2cccnc12
Exercise: For a and b , which recorded Ki is lower? Record your answer as the label of the chosen record.
Key: b
